- Test system: SW620
- assay-explanation: Inhibition of Cancer Cell Growth as Measured by Cell Number
- Assay type: cell-based, Human
- condition-notes: Homo sapiens, SW-620; 48 hours exposure, Sulforhodamine B

[
  {
    "compound": "COC[C@@H]1CCCN1CC=CC(=O)Nc1cc2c(Nc3ccc(F)c(Cl)c3)c(C#N)cnc2cc1OC.Cl.Cl",
    "reading-qualifier": "=",
    "IC50 / µg/mL": 1.24
  },
  {
    "compound": "COC[C@@H]1CCCN1CC#CC(=O)Nc1ccc2ncc(C#N)c(Nc3cccc(Br)c3)c2c1",
    "reading-qualifier": "=",
    "IC50 / µg/mL": 0.1
  },
  {
    "compound": "COCCN(C)CC#CC(=O)Nc1ccc2ncc(C#N)c(Nc3cccc(Br)c3)c2c1",
    "reading-qualifier": "=",
    "IC50 / µg/mL": 0.239
  },
  {
    "compound": "COCCN(CC#CC(=O)Nc1ccc2ncc(C#N)c(Nc3cccc(Br)c3)c2c1)CCOC",
    "reading-qualifier": "=",
    "IC50 / µg/mL": 0.5
  },
  {
    "compound": "CCOc1c(Nc2ccc3ncc(C#N)c(Nc4cccc(Br)c4)c3c2)c(=O)c1=O",
    "reading-qualifier": "=",
    "IC50 / µg/mL": 18
  },
  {
    "compound": "COCCOCC#CC(=O)Nc1ccc2ncc(C#N)c(Nc3cccc(Br)c3)c2c1",
    "reading-qualifier": "=",
    "IC50 / µg/mL": 0.4
  },
  {
    "compound": "COc1cc2ncc(C#N)c(Nc3ccc(F)c(Cl)c3)c2cc1NC(=O)C=CCN1CCCC(CO)C1.Cl (stereo not shown)",
    "reading-qualifier": "=",
    "IC50 / µg/mL": 1.73
  },
  {
    "compound": "C=CCN(C)CC#CC(=O)Nc1ccc2ncc(C#N)c(Nc3cccc(Br)c3)c2c1",
    "reading-qualifier": "=",
    "IC50 / µg/mL": 0.1
  },
  {
    "compound": "CN1CCC=C(C(=O)Nc2ccc3ncc(C#N)c(Nc4cccc(Br)c4)c3c2)C1",
    "reading-qualifier": ">",
    "IC50 / µg/mL": 5
  },
  {
    "compound": "COCCN(C)CC=CC(=O)Nc1cc2c(Nc3ccc(F)c(Cl)c3)c(C#N)cnc2cc1OC.Cl.Cl",
    "reading-qualifier": "=",
    "IC50 / µg/mL": 1.53
  }
]

* * *

Here the recorded IC50 is given for each entry.
- target-or-test-system: Mek and Erk (Homo sapiens, UniProt P28482+Q02750)
- Sequence (Q02750 whole entry): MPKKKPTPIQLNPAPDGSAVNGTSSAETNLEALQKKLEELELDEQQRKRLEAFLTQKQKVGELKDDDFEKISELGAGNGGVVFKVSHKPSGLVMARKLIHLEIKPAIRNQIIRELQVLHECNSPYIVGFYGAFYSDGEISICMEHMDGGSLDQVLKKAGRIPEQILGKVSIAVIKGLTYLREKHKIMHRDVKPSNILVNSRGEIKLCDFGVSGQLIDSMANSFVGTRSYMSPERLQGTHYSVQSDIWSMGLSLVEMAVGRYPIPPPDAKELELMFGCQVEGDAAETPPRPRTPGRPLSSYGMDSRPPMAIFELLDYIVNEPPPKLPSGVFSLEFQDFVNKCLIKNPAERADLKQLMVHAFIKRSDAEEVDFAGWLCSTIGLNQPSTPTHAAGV
- Sequence (P28482 2-360): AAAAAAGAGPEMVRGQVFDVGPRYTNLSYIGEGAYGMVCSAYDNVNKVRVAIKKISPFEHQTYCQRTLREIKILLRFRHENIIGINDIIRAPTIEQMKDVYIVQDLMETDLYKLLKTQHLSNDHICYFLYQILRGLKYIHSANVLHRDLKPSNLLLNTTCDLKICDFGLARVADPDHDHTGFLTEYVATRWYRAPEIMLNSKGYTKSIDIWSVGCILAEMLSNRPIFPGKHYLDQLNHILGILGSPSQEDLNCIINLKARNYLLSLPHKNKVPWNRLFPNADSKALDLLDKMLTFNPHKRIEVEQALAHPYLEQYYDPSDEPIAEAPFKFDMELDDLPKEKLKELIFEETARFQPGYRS
- assay-explanation: Mitogen Activated Protein Kinase (MAPK) coupled assay (Mek-Erk)
- Format: biochemical
- condition-notes: coupled MEK 1 / ERK2; separate entries = separate tests; read-out: Mek and Erk

[
  {
    "molecule-smiles": "CN1CCC=C(C(=O)Nc2ccc3ncc(C#N)c(Nc4cccc(Br)c4)c3c2)C1",
    "measurement-units": "µM",
    "reading-qualifier": "=",
    "IC50": 40
  },
  {
    "molecule-smiles": "COCCN(C)CC#CC(=O)Nc1ccc2ncc(C#N)c(Nc3cccc(Br)c3)c2c1",
    "measurement-units": "µM",
    "reading-qualifier": ">",
    "IC50": 100
  },
  {
    "molecule-smiles": "N#Cc1cnc2ccc(NC(=O)C#CCN3CCC4(CC3)OCCO4)cc2c1Nc1cccc(Br)c1",
    "measurement-units": "µM",
    "reading-qualifier": "=",
    "IC50": 30
  },
  {
    "molecule-smiles": "C=CCN(C)CC#CC(=O)Nc1ccc2ncc(C#N)c(Nc3cccc(Br)c3)c2c1",
    "measurement-units": "µM",
    "reading-qualifier": ">",
    "IC50": 100
  },
  {
    "molecule-smiles": "COCOCC#CC(=O)Nc1ccc2ncc(C#N)c(Nc3cccc(Br)c3)c2c1",
    "measurement-units": "µM",
    "reading-qualifier": ">",
    "IC50": 100
  },
  {
    "molecule-smiles": "COCCN(CC#CC(=O)Nc1ccc2ncc(C#N)c(Nc3cccc(Br)c3)c2c1)CCOC",
    "measurement-units": "µM",
    "reading-qualifier": "=",
    "IC50": 100
  },
  {
    "molecule-smiles": "COCCOCC#CC(=O)Nc1ccc2ncc(C#N)c(Nc3cccc(Br)c3)c2c1",
    "measurement-units": "µM",
    "reading-qualifier": ">",
    "IC50": 100
  }
]
